Hey, just so you know, these numbers are from patent US10562935B2.

Assay: Circular dichroism (CD) spectroscopy of linear and stapled peptides in water or 40% TFE/water (Example 3)
Assay type: physicochemical
Settings: λ = 208 nm; in water
Method: CD spectra were obtained on a Jasco J-810 spectropolarimeter and recorded in the range of 180-260 nm. Peptide solutions were prepared with a 0.1M phosphate buffer solution to a concentration of 0.5 mM. The measurements were performed in quartz cuvettes with a path length of 1 mm and a scanning speed of 10-50 nm/min. Five individual data points were averaged by the instrument in order to obtain the reported CD spectrum. The measurements were carried out at 20° C. […]
Bridges are numbered along the chain shown (N, C = ends).
Hi there, I'd appreciate the recorded [0]208 mean residue ellipticity for every entry that follows.
Give bare numbers, in deg cm^2 dmol^−1.

Substance | Readout Type | Measured Value
Ac-(cyclo-4,8)-NLK[EKIKK]VVKLKDE-NH2 (Ac-NLKEKIKKVVKLKDE-NH2; lactam 4-8; SMILES CC[C@H](C)[C@@H]1NC(=O)[C@H](CCCCN)NC(=O)[C@@H](NC(=O)[C@H](CCCCN)NC(=O)[C@H](CC(C)C)NC(=O)[C@H](CC(N)=O)NC(C)=O)CCC(=O)NCCCC[C@@H](C(=O)N[C@H](C(=O)N[C@H](C(=O)N[C@@H](CCCCN)C(=O)N[C@@H](CC(C)C)C(=O)N[C@@H](CCCCN)C(=O)N[C@@H](CC(=O)O)C(=O)N[C@@H](CCC(=O)O)C(N)=O)C(C)C)C(C)C)NC(=O)[C@H](CCCCN)NC1=O) [Compound 157] | [0]208 mean residue ellipticity | -6.40E+03
Ac-(cyclo-5,9)-VSKL[ESQLK]KRKQN-NH2 (Ac-VSKLESQLKKRKQN-NH2; lactam 5-9; SMILES CC(=O)N[C@H](C(=O)N[C@@H](CO)C(=O)N[C@@H](CCCCN)C(=O)N[C@@H](CC(C)C)C(=O)N[C@H]1CCC(=O)NCCCC[C@@H](C(=O)N[C@@H](CCCCN)C(=O)N[C@@H](CCCNC(=N)N)C(=O)N[C@@H](CCCCN)C(=O)N[C@@H](CCC(N)=O)C(=O)N[C@@H](CC(N)=O)C(N)=O)NC(=O)[C@H](CC(C)C)NC(=O)[C@H](CCC(N)=O)NC(=O)[C@H](CO)NC1=O)C(C)C) [Compound 151] | [0]208 mean residue ellipticity | -9.25E+03
Ac-(cyclo-6,10)-VSKLR[KQLVE]RKQN-NH2 (Ac-VSKLRKQLVERKQN-NH2; lactam 6-10; SMILES CC(=O)N[C@H](C(=O)N[C@@H](CO)C(=O)N[C@@H](CCCCN)C(=O)N[C@@H](CC(C)C)C(=O)N[C@@H](CCCNC(=N)N)C(=O)N[C@H]1CCCCNC(=O)CC[C@@H](C(=O)N[C@@H](CCCNC(=N)N)C(=O)N[C@@H](CCCCN)C(=O)N[C@@H](CCC(N)=O)C(=O)N[C@@H](CC(N)=O)C(N)=O)NC(=O)[C@H](C(C)C)NC(=O)[C@H](CC(C)C)NC(=O)[C@H](CCC(N)=O)NC1=O)C(C)C) [Compound 155] | [0]208 mean residue ellipticity | -5.30E+03

Give [0]208 mean residue ellipticity for each of the items listed below.
1. Ac-NLKQKIKHVVKLKDE-NH2 [Compound 156]
2. Ac-(cyclo-8,12)-NLKQKIK[EVVKK]KDE-NH2 (Ac-NLKQKIKEVVKKKDE-NH2; lactam 8-12; SMILES CC[C@H](C)[C@H](NC(=O)[C@H](CCCCN)NC(=O)[C@H](CCC(N)=O)NC(=O)[C@H](CCCCN)NC(=O)[C@H](CC(C)C)NC(=O)[C@H](CC(N)=O)NC(C)=O)C(=O)N[C@@H](CCCCN)C(=O)N[C@H]1CCC(=O)NCCCC[C@@H](C(=O)N[C@@H](CCCCN)C(=O)N[C@@H](CC(=O)O)C(=O)N[C@@H](CCC(=O)O)C(N)=O)NC(=O)[C@H](CCCCN)NC(=O)[C@H](C(C)C)NC(=O)[C@H](C(C)C)NC1=O) [Compound 161]

Return:
1: -9.00E+02; 2: -5.85E+03
